// reported log10 of IC50 per item
Molecular target: recombinant mTOR (FLAG-tagged, residues 1362-2549) (Homo sapiens)
Experiment: In vitro mTOR kinase assay (Test (a), AlphaScreen)
Conditions: ATP 20 μM, read-out: Test (a): IC50 versus mTOR kinase
Source text: (a) In Vitro mTOR Kinase Assay Following expression in the mammalian HEK293 cell line, expressed protein was purified using the FLAG epitope tag using standard purification techniques. […] The resultant signals arising from laser light excitation at 680 nm were read using a Packard Envision instrument. […] mTOR enzyme inhibition for a given test compound was expressed as an IC50 value.
RECORDED ENDPOINT: log10 of IC50 (log10 of the value in µM)

>>> value_observed("CNC(=O)Nc1ccc(-c2nc(CS(=O)(=O)CCO)cc(N3CCOC[C@@H]3C)n2)cc1 [Example 19e]")
-1.96
>>> value_observed("C[C@H]1COCCN1c1cc(CS(C)(=O)=O)nc(-c2ccc(NC(=O)NCCc3c[nH]cn3)cc2)n1 [Example 24b]")
-1.42
>>> value_observed("Cn1ccc(NC(=O)Nc2ccc(-c3nc(CS(C)(=O)=O)cc(N4CCOCC4)n3)cc2)n1 [Example 34c]")
-0.14
>>> value_observed("C[C@H]1COCCN1c1cc(CS(C)(=O)=O)nc(-c2ccc(NC(=O)NC3CC3)nc2)n1 [Example 24r]")
-0.47
>>> value_observed("CC(C)CNC(=O)Nc1ccc(-c2nc(CS(C)(=O)=O)cc(N3CCOCC3)n2)cc1 [Example 45b]")
-0.92
>>> value_observed("CS(=O)(=O)Cc1cc(N2CCOCC2)nc(-c2ccc(NC(=O)NCCCO)cc2)n1 [Example 45q]")
-1.49
>>> value_observed("CNC(=O)Nc1ccc(-c2nc(CS(=O)(=O)c3nc(C)cs3)cc(N3CCOC[C@@H]3C)n2)cc1 [Example 33h]")
-1.32

###

Molecular target: recombinant mTOR (FLAG-tagged, residues 1362-2549) (Homo sapiens, UniProt P42345)
Sequence (P42345 1362-2549): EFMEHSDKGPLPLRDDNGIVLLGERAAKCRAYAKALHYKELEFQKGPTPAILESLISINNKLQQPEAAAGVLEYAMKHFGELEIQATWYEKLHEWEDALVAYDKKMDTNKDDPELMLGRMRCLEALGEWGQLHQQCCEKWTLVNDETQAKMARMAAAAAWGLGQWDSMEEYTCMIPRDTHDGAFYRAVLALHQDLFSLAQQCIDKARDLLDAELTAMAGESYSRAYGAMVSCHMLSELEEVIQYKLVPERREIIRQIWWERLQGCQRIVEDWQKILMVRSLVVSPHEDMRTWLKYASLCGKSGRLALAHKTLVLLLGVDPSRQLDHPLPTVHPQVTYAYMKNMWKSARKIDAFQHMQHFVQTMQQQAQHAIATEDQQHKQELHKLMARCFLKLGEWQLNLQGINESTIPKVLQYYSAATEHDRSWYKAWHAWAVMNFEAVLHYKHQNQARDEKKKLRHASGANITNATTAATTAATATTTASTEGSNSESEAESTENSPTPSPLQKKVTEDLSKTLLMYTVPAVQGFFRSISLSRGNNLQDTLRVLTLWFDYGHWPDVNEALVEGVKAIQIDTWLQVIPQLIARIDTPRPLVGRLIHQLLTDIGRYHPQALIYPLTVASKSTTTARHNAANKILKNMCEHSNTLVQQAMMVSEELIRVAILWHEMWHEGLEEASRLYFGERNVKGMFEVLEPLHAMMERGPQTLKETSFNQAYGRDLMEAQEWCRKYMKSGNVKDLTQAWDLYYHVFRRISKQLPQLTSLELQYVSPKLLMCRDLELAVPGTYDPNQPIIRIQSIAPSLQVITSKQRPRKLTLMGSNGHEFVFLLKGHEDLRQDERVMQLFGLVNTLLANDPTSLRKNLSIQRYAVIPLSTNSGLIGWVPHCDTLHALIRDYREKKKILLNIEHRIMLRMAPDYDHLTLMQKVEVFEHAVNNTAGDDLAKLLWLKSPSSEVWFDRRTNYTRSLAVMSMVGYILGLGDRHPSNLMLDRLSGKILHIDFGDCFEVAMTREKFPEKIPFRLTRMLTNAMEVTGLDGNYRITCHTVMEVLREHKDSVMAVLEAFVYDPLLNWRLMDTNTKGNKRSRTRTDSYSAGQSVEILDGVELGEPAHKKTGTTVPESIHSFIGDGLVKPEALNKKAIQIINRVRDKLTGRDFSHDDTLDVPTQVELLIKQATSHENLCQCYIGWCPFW
Test: In vitro mTOR kinase assay (Test (a), AlphaScreen)
Conditions: ATP 20 μM, read-out: Test (a): IC50 versus mTOR kinase
From the text: (a) In Vitro mTOR Kinase Assay Following expression in the mammalian HEK293 cell line, expressed protein was purified using the FLAG epitope tag using standard purification techniques. […] The resultant signals arising from laser light excitation at 680 nm were read using a Packard Envision instrument. […] mTOR enzyme inhibition for a given test compound was expressed as an IC50 value.
RECORDED ENDPOINT: log10 IC50 (log10 of the value in µM)

>>> value_observed("CC(C)(C)NC(=O)Nc1ccc(-c2nc(CS(C)(=O)=O)cc(N3CCOCC3)n2)cc1 [Example 8a]")
-0.33
>>> value_observed("C[C@H]1COCCN1c1cc(C(C)(C)S(=O)(=O)C2CC2)nc(-c2ccc(NC(=O)NC3CC3)cc2)n1 [Example 56]")
0.38
>>> value_observed("CC(=O)NCCS(=O)(=O)Cc1cc(N2CCOC[C@@H]2C)nc(-c2ccc(NC(=O)N(C)C)cc2)n1 [Example 16]")
0.60
>>> value_observed("CS(=O)(=O)Cc1cc(N2CCOCC2)nc(-c2ccc(NC(=O)NCc3ncc[nH]3)cc2)n1 [Example 8d]")
-0.24
>>> value_observed("C[C@H]1COCCN1c1cc(CS(C)(=O)=O)nc(-c2ccc(NC(=O)Nc3cc[nH]c(=O)c3)cc2)n1 [Example 22g]")
-2.35
>>> value_observed("C[C@H]1COCCN1c1cc(C(C)(C)S(C)(=O)=O)nc(N2CCC(NC(=O)NC3CC3)CC2)n1 [Example 24p]")
-0.05
>>> value_observed("CS(=O)(=O)Cc1cc(N2CCOCC2)nc(-c2ccc(NC(=O)N3CCCC(O)C3)cc2)n1 (stereo not shown) [Example 45m]")
-0.77

Attribution: patent US7750003B2
